The values you see were collected from patent US7236891B2.

- tgt: μI-II (C115S) (Rattus norvegicus, UniProt P97571, C115S)
- Construct: extended from residue 29 (MG^29RHENA-) to residue 356; added N-terminal Met (N); made in house; host or cells: E. coli BL21 (DE3)
- Sequence (P97571 29-356 C115S): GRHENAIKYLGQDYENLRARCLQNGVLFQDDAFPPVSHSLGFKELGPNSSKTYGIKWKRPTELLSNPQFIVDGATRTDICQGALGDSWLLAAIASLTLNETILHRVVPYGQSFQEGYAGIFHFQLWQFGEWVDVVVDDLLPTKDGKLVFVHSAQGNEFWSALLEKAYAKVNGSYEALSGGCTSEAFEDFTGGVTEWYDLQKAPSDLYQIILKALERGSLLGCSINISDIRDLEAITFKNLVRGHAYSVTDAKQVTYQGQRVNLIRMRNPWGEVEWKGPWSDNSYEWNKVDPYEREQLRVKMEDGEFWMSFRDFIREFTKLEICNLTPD
- measurement_protocol: Intrinsic tryptophan fluorescence of μI-II during Ca2+ titration
- Type: binding
- condition_notes: read-out: Ca2+ requirement for activation of μI-II
metric_name: EC50

Request: Need EC50, item [Ca+2].[Cl-].[Cl-]
Response: ~40 µM
